These measurements were taken from patent US20240336683A1.

Target: T1, human Siglec15-Fc fusion protein (human, UniProt Q6ZMC9 20-263)
T1 construct: Bought protein (Acro #SG5-H5253 is named for the selection); also called recombinant Siglec 15-Fc fusion protein (Acro #SG5-H5253); human Siglec15-Fc protein; not shown: Fc part of the bought fusion protein
T1 sequence (looked up): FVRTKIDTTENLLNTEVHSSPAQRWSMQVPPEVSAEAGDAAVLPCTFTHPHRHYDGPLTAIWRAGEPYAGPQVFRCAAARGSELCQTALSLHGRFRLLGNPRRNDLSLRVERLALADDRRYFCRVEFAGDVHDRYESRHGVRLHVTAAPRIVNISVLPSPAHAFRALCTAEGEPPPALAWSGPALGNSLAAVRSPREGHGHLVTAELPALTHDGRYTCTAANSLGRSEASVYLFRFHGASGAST
Test: ELISA; Siglec15-Fc captured by anti-hFc, scFv titrated, anti-Flag HRP
Protocol: An ELISA assay was developed to determine the EC50 of anti-Siglec15 antibodies. Briefly, a 384 well plate was immobilized with anti-human Fc antibody at final concentration of 2 ug/mL in 1×PBS in total volume of 25 uL per well. […] The Siglec15 binding was detected by adding 25 uL of anti-Flag HRP diluted at 1:5000 in 1×PBST. […] The plate was read at OD450 nm Biotek plate reader and then plotted in Prism 8.1 software.
MEASURED_PROPERTY: EC50 (nM)
Numbers only; they are read as nM.

Study these solved cases before continuing.
2020EP032-C09 scFv (scFv, V domains shown, Tested as a single-chain scFv made in E. coli with a C-terminal flag and 6x His tag) VH: QVQLVESGGGLVKPGGSLRLSCAASGFSFNNAWMSWVRQAPGKGLEWVGRIKSKTDDATTEYAAPVEGRFTISRDDSKNMLYLQMDSLKTEDTAVYYCTTDLRWEELPMYWGQGTLVTVSS VL: VIWMTQSPSSLSASVGDRVTITCRASQGIRNDLGWYQQKPGKAPKVLIYAASSLQSGVPSRFSGSGSGTDFTLTISSLQPEDFATYYCLQDYNYPQTFGQGTKVGIKR	6.07
2020EP032-A12 scFv (scFv, V domains shown, Tested as a single-chain scFv made in E. coli with a C-terminal flag and 6x His tag) VH: QMQLVQSGGGVVQPGRSLRLSCAASGFTFSSYGMHWVRQAPGKGLEWVAVISDDGSNKYYADSVKGRFTISRDNSKNTLYLQMNSLRAEDTAVYYCAKKDVATILFDNWGQGTLVTVSS VL: VIWMTQSPSTLSASVGDRVTITCRASQSITRWLAWYQQKPGKAPKLLIYKTSDLDGGVPSRFSGSESGAEFTLTISSLQPDDVATYFCQHYNTRSWTFGQGTKVELK	0.544
2019EP47-A02 scFv (scFv, V domains shown, Tested as a single-chain scFv made in E. coli with a C-terminal flag and 6x His tag) VH: EVQLVQSGGGVVQPGRSLRLSCAASGFTFSSYAMHWVRQAPGKGLEWVAVISYDGSNKYYADSVKGRFTISRDNSKNTLYLQMNSLRAEDTAVYYCARSRYSSSLRRYYGMDVWGQGTTVTVSS VL: AIQLTQSPSSLSASVGDRVTITCQATHDIANYLNWYQQKPGKAPKLLIYAASNLETGVPSRFSGSGSGTDFTFAISSLQPEDIAVYYCQQYDNLPLTFGGGTKVEIK	21.9

## Input Requested field: EC50. Item: 2020EP083-G11 scFv (scFv, V domains shown, Tested as a single-chain scFv made in E. coli with a C-terminal flag and 6x His tag) VH: EVQLVESGGGLVEPGGSLRLSCAASGFTFSSYSMSWVRQAPGKGLEWVGRIKSETDGGTTDYAGPAKGKFIISRNDAENTVSLQMNSLKFEDTAVYHCTTDSSSSWFSYSFDNWGQETLVTVSS VL: EIVMTQSPATLSVSPGERATLSCRASQNVNSNLAWYQQKTGQAPRLLIFGASTRATGIPARFSGSGSGTEFTLTIGSLQSEDFAVYYCQQYNNWPPTFGGWTKVEIK
## Output 1.29

## Input Requested field: EC50. Item: 2019EP47-C12 scFv (scFv, V domains shown, Tested as a single-chain scFv made in E. coli with a C-terminal flag and 6x His tag) VH: EVQLVESGGGLEKPGRSLRLSCTASGFTFGDYAMSWFRQAPGKGLEWVGFITTKPYGGTTEYAASVKGRFTISRDDSKSIAYLQMNSLKTEDTAEYYCTKDSEAYYGSGSYMVGYWGQGTLVTVSS VL: QSVLTQPPSVSLAPGKTATITCGGDNIENKDVHWYQQKPGQAPVLVIRFAADRPSGIPERFSGSSSGNTATLTISRVEAGDEADYYCQVWQSTRDHPVVVFGGGTKLTVL
## Output 9.97

## Input Requested field: EC50. Item: 2020EP032-H11 scFv (scFv, V domains shown, Tested as a single-chain scFv made in E. coli with a C-terminal flag and 6x His tag) VH: EVQLVESGGGLVKPGGSLRLSCAASGFTFSSYSMNWVRQAPGKGLEWVSSISSSSSYIYYADSVKGRFTISRDNAKNSLYLQMNSLRAEDTAVYYCARDYRGYSGQNYYGMDVWGQGTTVTVSS VL: QSALTQPPSVSAAPRQKVTISCSGSSSNIGNNDVSWYQQLPGTVPKLLIYDNNKRPSGIPDRFSGSKSGTSASLGITGLQTGDEADYYCGVWDSSLSGYVFGTGTKVTVL
## Output 0.567

## Input Requested field: EC50. Item: 2019EP47-A05 scFv (scFv, V domains shown, Tested as a single-chain scFv made in E. coli with a C-terminal flag and 6x His tag) VH: QMQLVQSGAEVKKPGSSVKVSCKASGGTFSSYAISWVRQAPGQGLEWMGRIIPILGIANYAQKFQGRVTITADKSTSTAYMELSSLRSEDTAVYYCAVNTYYYDSSGYYYEYFDYWGQGTLVTVSS VL: EIVLTQSPSSLSASVGDRVTITCQASQHINNHLNWYQQKPGKGPKLLIYDVSNLEAGVPSRFSASGSGTDFSFTISSLQPEDFATYYCQQYDSLPLTFGQGTKVEVK
## Output 3.35

## Input Requested field: EC50. Item: 2019EP47-A10 scFv (scFv, V domains shown, Tested as a single-chain scFv made in E. coli with a C-terminal flag and 6x His tag) VH: QMQLVQSGGGVVQPGRSLRLSCAASGFTFSSYGMHWVRQAPGKGLEWVAVISYDGSNKYYADSVKDRFTISRDNSKNTLYLQMNSLRAEDTAVYYCAKDIVGDSGSYPIYYYYGMDVWGQGTTVTVSS VL: SQSALTQPHSVSESPGKTVTISCTRSSGSIASNYVQWYQQRPGSAPSTVIYEDNQRPSGVPDRFSGSVDISSNSASLTISGLQTEDEADYYCQSYDNDNMVFGGGTKLTVL
## Output 2.5

## Input Requested field: EC50. Item: 2020EP083-H01 scFv (scFv, V domains shown, Tested as a single-chain scFv made in E. coli with a C-terminal flag and 6x His tag) VH: QLQLQESGPGLVKPAETLSLTCTVSGGSVSSGDNLWDWIRQPPGKGLEWIGSIRDSGNPAYNPSLRSRVTISADTSTDQFSLKLTSVTAADTAVYYCARHSDGGYGKIYGMDVWGQGTTVTVSS VL: DIQLTQSPSFLSASVGDRVTITCRASQAVSTYLVWYLQKPGQAPRLLIYAASTLQSGVPSRFSGSGSGTDFTLTISRLQPEDAGTYFCQQLNSNALVFGGGTKVDIK
## Output 2.54
